# Test system: Plasmodium falciparum
# Protocol Notes: GSK_TCMDC: Inhibition of Plasmodium falciparum Dd2 in whole red blood cells, using parasite LDH activity as an index of growth. Test compounds present at 2uM
# Type: functional
Measured Endpoint: Inhibition (%)
// note: answer is a bare numeric in %

[
  {
    "Compound": "O=C(c1cccc(-c2noc(C(F)(F)F)n2)c1)N1CCN(C(=O)c2ccc3cc[nH]c3c2)CC1",
    "Inhibition / %": 85
  },
  {
    "Compound": "COc1cc(NC(=O)N2CCc3ccc(OCCC4CCCN4C)cc32)cc(C(F)(F)F)c1.O=C(O)C(F)(F)F (centres undefined)",
    "Inhibition / %": 42
  },
  {
    "Compound": "COC(=O)c1c(C#N)c(OC)cc(O)c1CSC[C@H](Nc1nc(-c2ccc([N+](=O)[O-])cc2)cs1)C(=O)NCCN1CCCCC1",
    "Inhibition / %": 88
  }
]

Check Plasmodium falciparum data and give Inhibition for CCN1CCN(c2cc(C)c3cc(NC(=O)c4cccc([N+](=O)[O-])c4)ccc3n2)CC1 .
73

# assay system Plasmodium falciparum: give Inhibition of CO/C(=C\C=C\c1cc2cc(Cl)c(Cl)cc2[nH]1)C(=O)Nc1ccc(NCCN(C)C)nc1.Cl
56

With Plasmodium falciparum as the test system, provide measured Inhibition for this compound: CCN(CCCN1CCCCC1)c1cc(C)nc(Nc2ccc(C(F)(F)F)cc2)n1.O=C(O)C(F)(F)F
99

For Plasmodium falciparum, give Inhibition of the listed compound: CCN(CC)CCCC(C)N=c1cc(C=Cc2ccccc2Cl)[nH]c2cc(Cl)ccc12.O=P(O)(O)O (centres undefined)
77

Given Cc1ccccc1C1CCN(C2CCC(NC(=O)/C=C/c3ccc(Cl)cc3)CC2)CC1 (centres undefined) , report its Inhibition on Plasmodium falciparum.
25

Under Plasmodium falciparum, report Inhibition for O=C(O)C(F)(F)F.c1cc(-c2ccc(CN3CCCCC3)cc2)cc(-c2nc3ccccc3[nH]2)c1
79

----------
# Tested on: Plasmodium falciparum
# Protocol Notes: GSK_TCMDC: Inhibition of Plasmodium falciparum Dd2 in whole red blood cells, using parasite LDH activity as an index of growth. Test compounds present at 2uM
# Format: functional
Entries and their measured Inhibition follow.
Response body: numeric value in %, unit text excluded.

[
  {
    "Compound": "OC(c1nnc(S)n1-c1ccccc1)C(O)c1nnc(S)n1-c1ccccc1 (stereo not drawn)",
    "Inhibition / %": 89
  },
  {
    "Compound": "N#CN1CC[C@@H](NS(=O)(=O)Cc2ccc(Cl)c(Cl)c2)C1",
    "Inhibition / %": 94
  },
  {
    "Compound": "CC1CCc2sc(-c3nnc(SC(C)C(=O)N4CCCC4)o3)cc2C1 (stereo not drawn)",
    "Inhibition / %": 94
  }
]

Note Inhibition for the compound shown: N#Cc1cccc(NC(=O)NC2CCN(CCCCCNC(=O)/C=C/c3ccc(Cl)c(Cl)c3)CC2)c1
7

Dear colleague, please send me the reported Inhibition for C=CCn1c(=N)n(CC(O)c2ccc(Cl)c(Cl)c2)c2ccccc21.Cl (stereo not drawn) when you can.
80

State its Inhibition for this compound: CC(C)(CN)c1nc(-c2ccc(Cl)c(O)c2)c(-c2ccnc(N)n2)[nH]1
95

Read the entry COc1cccc(Nc2c(C(N)=O)cnc3ccc(-c4ccc([S+](C)[O-])cc4)cc23)c1.O=C(O)C(F)(F)F (stereo not drawn) and write its reported Inhibition.
100

Supply reported Inhibition belonging to this compound: O=C(Nc1ccccc1)c1c[nH]cn1
0
